Measured CD28 scFv signal accompanies every entry in the list below.
Target: Anti-CD28 scFv (VH - linker 1 - VL) (biotinylated (site not stated))
Sequence (scFv, as listed by the source): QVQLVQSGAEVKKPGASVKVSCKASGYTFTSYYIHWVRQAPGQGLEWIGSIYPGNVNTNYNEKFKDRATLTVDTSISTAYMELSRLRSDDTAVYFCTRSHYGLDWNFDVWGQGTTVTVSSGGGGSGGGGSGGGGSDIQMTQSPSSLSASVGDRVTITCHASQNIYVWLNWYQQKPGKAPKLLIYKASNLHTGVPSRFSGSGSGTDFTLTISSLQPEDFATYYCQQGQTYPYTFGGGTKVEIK
Assay: clonal phage ELISA on biotinylated anti-CD28 scFv captured on neutravidin plates, anti-M13 HRP detection;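 further: crude phage supernatants were used, and before phage were added the wells were pretreated with blocking buffer, either alone or with soluble CD28 protein, without washing in between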

Answered cases to consult:
1. MDWCPRHLWDECFF (tested as crude clonal phage supernatant) [Phage-118] :: 2.46
2. MDWCPSYLWTVCFA (tested as crude clonal phage supernatant) [Phage-129] :: 2.34
3. MDWCPVSLWHVCFY (tested as crude clonal phage supernatant) [Phage-125] :: 2.4

Kindly review the next binder as well.
// CD28 scFv signal lookup, binder = MDWCPRDLWIECFF (tested as crude clonal phage supernatant) [Phage-128] , result: 2.37
